biological target: factor Xa (Homo sapiens); construct: Human factors X, Xa, IXa, XIa, and XIIa are purchased; purchased Enzyme Research Laboratories, South Bend, Ind; test: Kass with factor Xa, chromogenic substrate; format: biochemical; details: substrate N-Benzoyl-Ile-Glu-Gly-Arg-p-nitroanilide
Sequence (P00742 235-488 limits assumed): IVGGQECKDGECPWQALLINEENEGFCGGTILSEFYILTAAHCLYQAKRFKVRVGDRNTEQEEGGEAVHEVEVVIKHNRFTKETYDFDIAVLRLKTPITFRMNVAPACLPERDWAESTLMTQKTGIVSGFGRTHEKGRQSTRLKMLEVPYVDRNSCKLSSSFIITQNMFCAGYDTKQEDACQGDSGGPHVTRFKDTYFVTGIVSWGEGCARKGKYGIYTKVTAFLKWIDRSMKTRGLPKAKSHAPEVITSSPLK
Sequence (P00742 41-179 partner limits assumed): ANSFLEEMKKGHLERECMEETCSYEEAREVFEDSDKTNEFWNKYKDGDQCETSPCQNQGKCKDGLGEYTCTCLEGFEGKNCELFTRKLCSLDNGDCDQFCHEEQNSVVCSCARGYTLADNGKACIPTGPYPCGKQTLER
Structures can show the parent of a compound that is named as a salt.
Please provide measured Kass Xa for the entries that follow.

Past entries and their recorded results:
                                   molecule              targetsystem                   result
0  CCS(=O)(=O)N[C@H](Cc1ccccc1)C(=O)N1CCC[C@H]1C(=O)NCc1ccc(NC(=N)N)cc1  factor Xa (Homo sapiens)  < 0.001 × 10^6 (L/mole)
1  CCS(=O)(=O)N[C@H](Cc1ccccc1)C(=O)N1CCC[C@H]1C(=O)NCCc1ccc(C(=N)N)cc1  factor Xa (Homo sapiens)     0.01 × 10^6 (L/mole)
2  N=C(N)Nc1cccc(CNC(=O)[C@@H]2CCCN2C(=O)[C@@H]2NCC[C@@H]3CCCC[C@@H]32)c1  factor Xa (Homo sapiens)  < 0.001 × 10^6 (L/mole)
3  N=C(N)NC/C=C/CNC(=O)[C@@H]1CCCN1C(=O)[C@H](N)Cc1ccccc1 (relative stereo)  factor Xa (Homo sapiens)  0.00038 × 10^6 (L/mole)
4  N=C(N)NCCCNC(=O)[C@@H]1CCCN1C(=O)[C@H](N)Cc1ccccc1 [Example 7, D-Phe-Pro-NH(CH2)3 NHC(NH)NH2.HCl]  factor Xa (Homo sapiens)   0.0041 × 10^6 (L/mole)
5  N=C(N)Nc1ccc(CCNC(=O)[C@@H]2CCCN2C(=O)[C@@H]2NCC[C@@H]3CCCC[C@@H]32)cc1  factor Xa (Homo sapiens)  < 0.001 × 10^6 (L/mole)

Please report Kass Xa for every entry that follows.
1. N=C(N)c1ccc(CNC(=O)[C@@H]2C[C@@H]3CCCC[C@@H]3N2C(=O)[C@H]2C[C@H]3CCCC[C@H]3CN2)cc1 (relative stereo)
2. Nc1ccc(CNC(=O)[C@@H]2CCCN2C(=O)[C@H](N)Cc2ccccc2)cc1 [Example 13, D-Phe-Pro-p-NHCH2 C6 H4 NH2.HCl]
3. N=C(N)c1ccc(CNC(=O)[C@@H]2CCCN2C(=O)[C@@H](CC2CCCCC2)NCC(=O)O)cc1
4. NC[C@H]1CC[C@H](CNC(=O)[C@@H]2CCCN2C(=O)[C@H](N)Cc2ccccc2)CC1 (relative stereo)
5. N=C(N)NCc1ccc(CNC(=O)[C@@H]2CCCN2C(=O)[C@H](N)Cc2ccccc2)cc1

1: 0.05 × 10^6 (L/mole); 2: 0.00098 × 10^6 (L/mole); 3: 5.5 × 10^6 (L/mole); 4: 0.000042 × 10^6 (L/mole); 5: 0.00058 × 10^6 (L/mole)

Fill in: Kass Xa of `N=C(N)c1ccc(CNC(=O)[C@@H]2CCCN2C(=O)[C@H](NCC(=O)O)C2CCCCC2)cc1` is ___ 0.63 × 10^6 (L/mole)
